The entries below come with measured GI50 values attached.
tested on: MALME-3M melanoma; assay: NCI tumour cell line growth inhibition, 48 h

Here are 3 molecules together with their reported answers.
MOLECULE | PROPERTY | RESULT
CCC(C(=O)[C@@H](C)[C@@H](O)[C@H](C)[C@@H]1O[C@@H]([C@@H](CC)C(=O)ONC(=O)c2ccccc2)CC[C@@H]1C)[C@H]1O[C@]2(C=CC(=O)[C@]3(CC[C@@](C)([C@H]4CC[C@](O)(CC)[C@H](C)O4)O3)O2)[C@H](C)C[C@@H]1C (some centres undefined) | GI50 | 0.168 µM
OCC1OC(n2cnc3c(NCc4ccco4)ncnc32)C(O)C1O (centres undefined) | GI50 | 5.91 µM
CCN(CC)CCCNc1cc(OC)c(OC)c2cccnc12 | GI50 | 12.8 µM

# input for lookup
Param readout= GI50; system= MALME-3M melanoma; entry= COc1ccc2c(c1)C(=O)c1c-2n(CCCCl)c(=O)c2cc(N)ccc12 ; returns value.
> 100 µM

---

test system: SK-MEL-2 melanoma; test: NCI tumour cell line growth inhibition, 48 h
PROPERTY: TGI

COMPOUND | TGI
N#CCC(=O)Nc1ccccc1O | > 100 µM
COc1ccc(N[C@@H]2c3cc4c(cc3C(c3cc(OC)c(O)c(OC)c3)[C@H]3C(=O)OCC32)OCO4)cc1OC (stereo partly specified) | > 30.4 µM
c1ccc(/C(=N\Nc2nc3ccccc3s2)c2ccccn2)cc1 | > 61.8 µM
CC12CCC(=O)[C@@]1(C)CCCC2O (stereo partly specified) | > 100 µM
Cn1cc(-c2nc(-c3cn(C)c4ncccc34)cs2)c2ccccc21 | 68.7 µM

Reported TGI for CCOc1nc2sc3c(c2c(=O)n1CCSSCCn1c(OCC)nc2sc4c(c2c1=O)CCCC4)CCCC3 : what is it?
> 100 µM

Please report the recorded TGI for COc1ccc(-c2nnc(Nc3nc(O)c(C4=c5cc(Br)ccc5=NC4=O)s3)o2)cc1 .
48.8 µM

Which value of TGI has been reported for Cc1cn2c(/C=C3\C(=O)N(C)c4ccc(Cl)cc43)c(C)nc2s1 in the records?
> 100 µM

Requested read-out: TGI. Entry: C(=C\c1ccc(OCC2CO2)cc1)/C1=NCOC1 (stereo unspecified)
36 µM

Quick one: TGI for CCc1ccccc1NC(=O)C(=O)C(C#N)c1c(Cl)cccc1Cl (stereo unspecified) ?
> 100 µM

For the compound shown here, N#CC(C#N)=Cn1c(=S)[nH]c2ccc([N+](=O)[O-])cc21 , give the reported TGI.
> 100 µM

---

system: NCI/ADR-RES ovarian; experiment: NCI tumour cell line growth inhibition, 48 h; in the data active means GI50 below about 0.43 µM; inactive means the rest
Answer with one of the outcomes 1 = active, -1 = inactive

A selection of reference data follows.
COMPOUND | GROUP
CCC(C(=O)[C@@H](C)[C@@H](O)[C@H](C)[C@@H]1O[C@@H]([C@@H](CC)C(=O)ONC(=O)c2ccccc2)CC[C@@H]1C)[C@H]1O[C@]2(C=CC(=O)[C@]3(CC[C@@](C)([C@H]4CC[C@](O)(CC)[C@H](C)O4)O3)O2)[C@H](C)C[C@@H]1C (stereo not given in full) | 1
COC(=O)[C@H](CCCCNC(=O)OCc1ccccc1)NC(=O)[C@@H](NC(=O)Nc1cc(C(F)(F)F)cc(C(F)(F)F)c1)C(C)C | -1
CCOC(=O)CCSC1=CC(=O)c2nc3ccccc3c3ccnc1c23 | -1
C(=C\c1ccc(OCC2CO2)cc1)/C1=NCOC1 (stereo not given) | -1

// switching to the query compound
Per the records of this test, what outcome belongs to Cn1cc(-c2nc(-c3cn(C)c4ncccc34)cs2)c2ccccc21 ?
-1
